# TEST_DESCRIPTION: CCTE_Shafer_MEA_acute_interburst_interval_mean: CCTE's Neural Acute Assay for Mean Interburst Interval, Shafer Lab (AID 2284016);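 also: percent change of mean interburst interval versus each well's own pre-dose baseline; curves fitted for decrease in interburst interval relative to DMSO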
Activity calls are given as the source filed them. The calls were made as follows: active = hit-call score of the fitted dose curve at least 0.9, where 1 is the maximum; inactive = score below 0.9.
Outcomes: active, inactive

MOLECULE: CN(C)C(=O)C(CCN1CCC(O)(c2ccc(Cl)cc2)CC1)(c1ccccc1)c1ccccc1
ANSWER_LABEL: inactive

MOLECULE: CC1(C)S[C@@H]2[C@H](NC(=O)[C@H](N)c3ccc(O)cc3)C(=O)N2[C@H]1C(=O)O
ANSWER_LABEL: inactive

MOLECULE: CC(C)C1OCCN1CCOC(=O)NCCCCCCNC(=O)OCCN1CCOC1C(C)C (stereo not drawn)
ANSWER_LABEL: inactive

MOLECULE: NC(N)=Nc1nc(CSCCC(N)=NS(N)(=O)=O)cs1
ANSWER_LABEL: inactive

MOLECULE: CC[N+](CC)(CC(=O)Nc1c(C)cccc1C)Cc1ccccc1 (tested in a mixture with another compound)
ANSWER_LABEL: inactive

MOLECULE: C1CN(CCOCCN2CCOCC2)CCO1
ANSWER_LABEL: inactive

MOLECULE: COc1ccccc1Oc1c(NS(=O)(=O)c2ccc(C(C)(C)C)cc2)nc(-c2ncccn2)nc1OCCO
ANSWER_LABEL: active

MOLECULE: CNCCC(Oc1ccc(C(F)(F)F)cc1)c1ccccc1 (stereo not drawn)
ANSWER_LABEL: inactive

###

# TEST_DESCRIPTION: TOX21_p53_BLA_p3_viability: Viability Assessment in the Tox21 HCT-116 p53 Agonism Beta-lactamase Assay, Phase 3 (AID 2283593);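 also: cells exposed to compound for 16 h before reading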
Inconclusive results are not listed. The source made the active and inactive calls. How the source made its calls: active means hit-call score of the fitted dose curve at least 0.9, where 1 is the maximum; inconclusive means response in the unintended direction; inactive means score below 0.9.

MOLECULE: CCCC(=O)O[C@]1(C(=O)COC(C)=O)CC[C@H]2[C@@H]3C[C@H](F)C4=CC(=O)C=C[C@]4(C)[C@@]3(F)[C@@H](O)C[C@@]21C
AC50: inactive
--
MOLECULE: c1ccncc1
AC50: inactive
--
MOLECULE: CCCc1c2oc(C(=O)O)cc(=O)c2cc2c(=O)cc(C(=O)O)n(CC)c12
AC50: inactive
--
MOLECULE: CCC(CC)(CC(=O)Nc1cccc(/C=C/c2nc(C3CCC3)cs2)c1)C(=O)O
AC50: inactive
--
MOLECULE: C[C@]12C=CC(=O)C=C1[C@@H](F)C[C@@H]1[C@@H]2[C@@H](O)C[C@@]2(C)[C@H]1CC[C@]2(O)C(=O)CO
AC50: 37.3 µM (active)
--
MOLECULE: CCC(N)(CO)CO
AC50: inactive
--
MOLECULE: CC(O)[C@@H]1NC(=O)[C@H](CCCCN)NC(=O)[C@@H](Cc2c[nH]c3ccccc23)NC(=O)[C@H](Cc2ccccc2)NC(=O)[C@@H](NC(=O)[C@H](N)Cc2ccccc2)CSSC[C@@H](C(=O)N[C@H](CO)[C@@H](C)O)NC1=O (stereo not given in full)
AC50: inactive
--
MOLECULE: O=C(Nc1ncc([N+](=O)[O-])s1)c1cccs1
AC50: 8.44 µM (active)
--
MOLECULE: COC(c1ccccc1)(c1ccccc1)[C@H](Oc1nc(C)cc(C)n1)C(=O)O
AC50: inactive
--
MOLECULE: CCCCCCCCCCCCCCN(C)C
AC50: inactive

###

# TEST_DESCRIPTION: BSK_hDFCGF_SRB: Viability Assessment in the BioMAP Diversity Plus: hDFCGF Assay (AID 2283061);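 also: cells exposed to compound for 24 h before the read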
# EXPERIMENTAL_CONDITIONS: primary human foreskin fibroblasts
# Procedure: BSK_hDFCGF is a cell-based, multiplexed-readout assay that uses foreskin fibroblast, a human skin primary cell, with measurements taken at 24 hours after chemical dosing in a 96-well plate.BSK_hDFCGF_SRB is an assay component measured in the BSK_hDFCGF assay. It measures 0.1% sulforhodamine related to cell death using Sulforhodamine staining technology.Data from the assay component BSK_hDFCGF_SRB was analyzed into 1 assay endpoint. […]
Activity calls are given as the source filed them. The calls were made as follows: active = hit-call score of the fitted dose curve at least 0.9, where 1 is the maximum; inactive = score below 0.9.
QUANTITY_KIND: outcome

MOLECULE: CCCCCCCCCC/C=C/C1CC(=O)OC1=O (stereo not drawn)
RESULT: inactive
--
MOLECULE: Sc1nc2ccccc2s1
RESULT: inactive
--
MOLECULE: CC(C)C1OCCN1CCOC(=O)NCCCCCCNC(=O)OCCN1CCOC1C(C)C (stereo not drawn)
RESULT: inactive

###

# Read-out: Intercellular Adhesion Molecule 1 (ICAM1), ICAM1 (gene 3383)
# TEST_DESCRIPTION: BSK_KF3CT_ICAM1: BioMAP Diversity Plus: KF3CT Assay for Intercellular Adhesion Molecule 1 (ICAM1) Biomarker Activity (AID 2283067)
# EXPERIMENTAL_CONDITIONS: primary human keratinocytes with fibroblasts; actives raise or lower the signal
The source made the active and inactive calls. The calls were made as follows: active = hit-call score of the fitted dose curve at least 0.9, where 1 is the maximum; inactive = score below 0.9.
Classes used: 1 (yes) for active, 0 (no) for inactive

COMPOUND: Cc1cccnc1
ANSWER_LABEL: 0 (no)

COMPOUND: COc1ccccc1Oc1c(NS(=O)(=O)c2ccc(C(C)(C)C)cc2)nc(-c2ncccn2)nc1OCCO
ANSWER_LABEL: 0 (no)

COMPOUND: CCCCCCCCCCC1CO1 (centres undefined)
ANSWER_LABEL: 1 (yes)

COMPOUND: COc1cc(CNC(=O)CCCC/C=C/C(C)C)ccc1O
ANSWER_LABEL: 0 (no)

COMPOUND: O=C(C(=O)c1ccccc1)c1ccccc1
ANSWER_LABEL: 0 (no)

COMPOUND: Cc1c(C(N)=O)cc([N+](=O)[O-])cc1[N+](=O)[O-]
ANSWER_LABEL: 0 (no)

COMPOUND: CN(C)c1ccc(C(c2ccccc2)c2ccc(N(C)C)cc2)cc1
ANSWER_LABEL: 0 (no)

COMPOUND: CC(C)C1OCCN1CCOC(=O)NCCCCCCNC(=O)OCCN1CCOC1C(C)C (centres undefined)
ANSWER_LABEL: 0 (no)

COMPOUND: CCC(C)=NO
ANSWER_LABEL: 0 (no)

COMPOUND: CC(C)CC(=O)CC(C)CC(C)C (centres undefined)
ANSWER_LABEL: 1 (yes)

COMPOUND: CCCCC(CC)COC(=O)C=Cc1ccc(OC)cc1 (centres undefined)
ANSWER_LABEL: 0 (no)

COMPOUND: COc1ccc(C(=O)c2ccccc2O)c(O)c1
ANSWER_LABEL: 0 (no)

COMPOUND: CC[N+](CC)(CC(=O)Nc1c(C)cccc1C)Cc1ccccc1 (tested in a mixture with another compound)
ANSWER_LABEL: 0 (no)

COMPOUND: CC[N+](CC)(CC(=O)Nc1c(C)cccc1C)Cc1ccccc1
ANSWER_LABEL: 0 (no)

###

# Read-out: Tumor necrosis factor (Homo sapiens)
# TEST_DESCRIPTION: BSK_BT_xTNFa: BioMAP Diversity Plus: BT Assay for Tumor necrosis factor alpha (TNF-alpha) Biomarker Activity (AID 2284230)
# EXPERIMENTAL_CONDITIONS: primary human B cells with PBMC
Calls of active or inactive are those of the source. How the source made its calls: active means hit-call score of the fitted dose curve at least 0.9, where 1 is the maximum; inactive means score below 0.9.
Classes used: true (1) (active), false (0) (inactive)

COMPOUND: Cc1cc(-n2nc3ccc(Cl)cc3n2)c(O)c(C(C)(C)C)c1
ANSWER_LABEL: false (0)
//
COMPOUND: Oc1cccc2ccccc12
ANSWER_LABEL: false (0)
//
COMPOUND: CCCCCCCCCCC1CO1 (configuration not stated)
ANSWER_LABEL: false (0)
//
COMPOUND: CN(C)c1ccc(C(c2ccccc2)c2ccc(N(C)C)cc2)cc1
ANSWER_LABEL: true (1)
//
COMPOUND: COC(=O)/C=C\C(=O)OC
ANSWER_LABEL: false (0)
//
COMPOUND: CC[N+](CC)(CC(=O)Nc1c(C)cccc1C)Cc1ccccc1
ANSWER_LABEL: false (0)
//
COMPOUND: Cc1cccnc1
ANSWER_LABEL: false (0)

###

# TEST_DESCRIPTION: TOX21_p53_BLA_p4_viability: Viability Assessment in the Tox21 HCT-116 p53 Agonism Beta-lactamase Assay, Phase 4 (AID 2283597);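 also: hits lower the luminescence signal meaning cytotoxicity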
Inconclusive results are not listed. Activity calls are given as the source filed them. The calls were made as follows: active = hit-call score of the fitted dose curve at least 0.9, where 1 is the maximum; inconclusive = response in the unintended direction; inactive = score below 0.9.

COMPOUND: Cc1ccc(Cl)cc1N
outcome: inactive
--
COMPOUND: S=C1SCN(Cc2ccccc2)CN1Cc1ccccc1
outcome: inactive
--
COMPOUND: COCC(O)CO (stereo not given)
outcome: inactive
--
COMPOUND: NC(=O)c1ncn([C@@H]2O[C@H](CO)[C@@H](O)[C@H]2O)c1O
outcome: inactive
--
COMPOUND: N#C/C(=C1\SCC(c2ccccc2Cl)S1)n1ccnc1 (stereo not given)
outcome: inactive
--
COMPOUND: CN1CCN(CC(=O)N2c3ccccc3C(=O)Nc3cccnc32)CC1
outcome: inactive
--
COMPOUND: c1ccc(CNc2ncnc3nc[nH]c23)cc1
outcome: inactive
--
COMPOUND: CCc1ncnc2cc(OC)c(OC)cc12
outcome: inactive
--
COMPOUND: CCCCCCCC/C=C\CCCCCCCC(=O)NCc1ccc(O)c(OC)c1
outcome: inactive
--
COMPOUND: CC(C)C[C@H](NC(=O)CNC(=O)[C@H](Cc1ccc(O)cc1)NC(=O)[C@H](CO)NC(=O)[C@H](Cc1c[nH]c2ccccc12)NC(=O)[C@H](Cc1cnc[nH]1)NC(=O)[C@@H]1CCC(=O)N1)C(=O)N[C@@H](CCCN=C(N)N)C(=O)N1CCC[C@H]1C(=O)NCC(N)=O (stereo in doubt)
outcome: inactive
